# Tested on: HCT-116 colon
# experiment.notes: NCI tumour cell line growth inhibition, 48 h
measured.metric: TGI (µM)
Your answer is read as µM, so omit the unit and give the number.

Some solved cases for reference:
CCN(CC)CCC(=O)c1ccc(Oc2ccccc2)cc1	36.1
CCCN(CCC)C(=O)[C@H](CC)[C@@H]1CC[C@@H](C)[C@@H]([C@H](C)[C@@H](O)[C@@H](C)C(=O)[C@H](CC)C2O[C@]3(C=C[C@@H](O)[C@]4(CC[C@@](C)([C@H]5CC[C@](O)(CC)[C@H](C)O5)O4)O3)[C@H](C)C[C@@H]2C)O1 (stereo partly drawn)	5.98
CC(C)CCc1c(Cl)nc(Cl)nc1Cl	9.3
O=C(CCCCCCC(=O)Nc1ccc2c(c1)/C(=C/c1ccc[nH]1)C(=O)N2)NO	2.87
O=C1C(=O)c2ccccc2C(O)=C1CCCCCCCCC1CCCCC1	12.3
O=Cc1ccc(O)c2ncccc12	11.7
COC(=O)[C@@]1(O)C[C@H]2O[C@]1(C)n1c3ccccc3c3c4c(c5c6ccccc6n2c5c31)C(=O)NC4	2.24
O=c1n(CCCCn2c(=O)n(CC3CS3)c3ccccc32)c2ccccc2n1CC1CS1 (stereo not drawn)	39.7
C=C1CC[C@@H]2[C@](C)(COC(C)=O)[C@H](OC(C)=O)CC[C@@]2(C)[C@@H]1C/C=C1/C(=O)OC[C@H]1OC(C)=O	2.98
CCCCCCCCNC(=S)/N=C/c1c(O)c2ccccc2oc1=O	31

Ask: API: value(readout=TGI, system=HCT-116 colon) for record ClCc1ccc2ccc3ccc(CCl)nc3c2n1
Result: 3.44

Ask: Item COC(=O)c1cc2oc(/C=C3\SC(=S)N(NC(C)=O)C3=O)cc2n1Cc1ccccc1 with HCT-116 colon - TGI?
Result: 14.3

Ask: Fill in the recorded TGI for this compound, with HCT-116 colon as test system: CN(C)/C=C/c1nnnn1-c1ccc(I)cc1
Result: 23.5

Ask: What is its TGI for HCT-116 colon? Entry: CC1=C(C(=O)Nc2ccc(F)c(Cl)c2)C(c2cccc(Oc3ccccc3)c2)NC(=O)N1 (stereo not drawn)
Result: 24.6

Ask: // lookup TGI | system=HCT-116 colon | key= CN(C)c1ccc(O)c2c1C[C@H]1C[C@H]3[C@H](N(C)C)C(=O)C(C(N)=O)=C(O)[C@@]3(O)C(=O)C1=C2O
Result: 35

Ask: Quick check: TGI on HCT-116 colon, item CSC(=S)OC1C(CO[Si](C)(C)C(C)(C)C)OC2OC(C)(C)OC21 (stereo not drawn) ?
Result: 36.6

Ask: Please state recorded TGI (tested on HCT-116 colon) of Cc1ccc(/C(O)=C/c2nc3ccccc3[nH]c2=O)c(C)c1
Result: 55.8

Ask: What value of TGI on HCT-116 colon does O=C(N/N=C\c1ccc(N(CCCl)CCCl)cc1Cl)c1cccnc1 have?
Result: 36.6

Ask: Return TGI measured with HCT-116 colon given this compound: N#Cc1nc2cc(F)c(F)cc2nc1-c1ccc(Cl)cc1
Result: 29.2

====

# Test system: SK-MEL-5 melanoma
# experiment.notes: NCI tumour cell line growth inhibition, 48 h; in the data active = GI50 below about 0.43 µM; inactive = the rest
Just give me one of these, please: TRUE (active), FALSE (inactive)

Worked cases, answers included:
COC(=O)c1cc2oc(/C=C3\SC(=S)N(NC(C)=O)C3=O)cc2n1Cc1ccccc1	FALSE
CN(C)CCNC(=O)c1cc2c3ccccc3[nH]c2c2ncccc12	FALSE
CCCCCCCCCCCC[n+]1ccc(C(N)=O)cc1	FALSE
C=CC(=O)Nc1cccc(C)c1Nc1ncc2cc(-c3c(Cl)c(OC)cc(OC)c3Cl)ccc2n1	FALSE
CC1=C(C(=O)Nc2ccc(F)c(Cl)c2)C(c2cccc(Oc3ccccc3)c2)NC(=O)N1 (centres undefined)	FALSE
CCOC(=O)C#Cc1c(CC(=O)OCC)nnn1[C@H]1O[C@@H](CO)[C@@H]2OC(C)(C)O[C@@H]21	FALSE
N#Cc1nc2cc(F)c(F)cc2nc1-c1ccc(Cl)cc1	FALSE
O=C(N/N=C\c1ccc(N(CCCl)CCCl)cc1Cl)c1cccnc1	FALSE

Ask: Any idea what this test logged for Oc1ccc(N=Nc2ccc(N=Nc3ccccc3)cc2)cc1 ?
Result: FALSE

Ask: Kindly provide the recorded test outcome for the following compound: CC1/C(=N/Nc2ccc([N+](=O)[O-])cc2)CC2C3(C)CCC2(C(C)C(=O)O)C(=O)C13 (centres undefined)
Result: FALSE

Ask: What did the test return for OC(CNc1ccnc2cc(Cl)ccc12)CNC1CCCCC1 (centres undefined) ?
Result: FALSE

Ask: Identify the outcome logged in this assay for the compound shown: OCCNCCNc1c2ccccc2nc2oc3ccccc3c12
Result: FALSE

Ask: # outcome recorded in this test, key = CN1CCn2c(c(Sc3ccc(C(=O)NO)cc3)c3ccccc32)C1=O
Result: FALSE

Ask: Which result was noted for this compound in the test: O=C(CCCCCCC(=O)Nc1ccc2c(c1)/C(=C/c1ccc[nH]1)C(=O)N2)NO
Result: TRUE

Values from PubChem BioAssay (NCI)
